settings: PBS
For each of the molecules below, state its Em (nm).
Numbers only, in nm.

CN(C)c1ccc2c(c1)[Si](C)(C)c1cc(N(C)C)ccc1C21OC(=O)c2ccccc21 [Compound 032, reference compound] = 667
Cc1ccccc1C1=C2C=CC(=[N+](C)C)C=C2[Si]2(CCCC2)c2cc(N(C)C)ccc21 = 671
C[Si@]1(CCCCl)c2cc(N3CCC3)ccc2[C@]2(OC(=O)c3ccccc32)c2ccc(N3CCC3)cc21 = 666
C[Si@]1(CCCCl)c2cc(N3CCC3)ccc2[C@@]2(OC(=O)c3ccccc32)c2ccc(N3CCC3)cc21 = 666
COc1cccc(OC)c1C1=C2C=CC(=[N+](C)C)C=C2[Si](C)(CCCCl)c2cc(N(C)C)ccc21 (stereo not shown) = 673
CCOC(=O)CSCCC[Si@]1(C)c2cc(N(C)C)ccc2[C@@]2(OC(=O)c3ccccc32)c2ccc(N(C)C)cc21 = 665

Turning now to a further molecule:
Bench note: what Em (nm) did COc1cccc(OC)c1C1=C2C=CC(=[N+]3CCC3)C=C2[Si](C)(CCCCl)c2cc(N3CCC3)ccc21 (stereo not shown) show?
670
